assay: Kinetic study: plasma kinetics of TMC278 after single IM or SC injection of a nanosuspension; format: in vivo, male beagle dogs; details: male, beagle, dog, plasma, sc, 5 mg/kg, plasma concentration of TMC278, single SC 5 mg/kg TMC278 nanosuspension, dog 19129, 240 h (d10)
RECORDED_METRIC: concentration at 240 h (ng/mL)
Give bare numbers, in ng/mL.

Data request: If you can, please state the reported concentration at 240 h value of `Cc1cc(C=CC#N)cc(C)c1Nc1ccnc(Nc2ccc(C#N)cc2)n1` .
Data returned: 24.3

---

test: Kinetic study: plasma kinetics of TMC278 after single IM or SC injection of a nanosuspension; type: in vivo, male beagle dogs; conditions: male, beagle, dog, plasma, sc, 5 mg/kg, single SC 5 mg/kg TMC278 nanosuspension, mean of 2 dogs; read-out: AUC0-312 h;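 further: healthy male beagle dogs injected in both biceps femoris muscles (IM) or both thoracal sides (SC), total volume 0.2 mL/kg, drug measured in plasma from blood samples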
RECORDED_METRIC: AUC(0-t) (ng·h/mL)
Answers are plain numbers, in ng·h/mL.

Data request: Bench note: what AUC(0-t) did `Cc1cc(C=CC#N)cc(C)c1Nc1ccnc(Nc2ccc(C#N)cc2)n1` show?
Data returned: 8400
